protocol.description: Plasma pharmacokinetics of LMP776, non-compartmental
Type: in vivo, human
applied.conditions: human, plasma, intravenous; DL6, 9 mg/m2, n=2
measured.metric: Tmax (h)

mol | readout.number
COc1cc2c3c(n(CCCn4ccnc4)c(=O)c2cc1OC)-c1cc2c(cc1C3=O)OCO2 | 1

###

protocol.description: Plasma pharmacokinetics of LMP744, non-compartmental
Format: in vivo, human
applied.conditions: human, plasma, intravenous, 96 mg/m2, DL5, 96 mg/m2, n=1; read-out: t1/2 (converted)

mol | unit.tag | half-life
COc1cc2c3c(n(CCCNCCO)c(=O)c2cc1OC)-c1cc2c(cc1C3=O)OCO2 | h | 16.2

###

protocol.description: Plasma pharmacokinetics of LMP776, non-compartmental
Format: in vivo, human
applied.conditions: human, plasma, intravenous; DL4, 4.5 mg/m2, n=3

compound | AUC(0-inf), ng·h/mL
COc1cc2c3c(n(CCCn4ccnc4)c(=O)c2cc1OC)-c1cc2c(cc1C3=O)OCO2 [LMP776] | 1850

###

protocol.description: Plasma pharmacokinetics of LMP776, non-compartmental
Format: in vivo, human
applied.conditions: human, plasma, intravenous; DL7 (MTD), 12 mg/m2, n=6

mol | unit.tag | Cmax
COc1cc2c3c(n(CCCn4ccnc4)c(=O)c2cc1OC)-c1cc2c(cc1C3=O)OCO2 | ng/mL | 523

###

protocol.description: Plasma pharmacokinetics of LMP776, non-compartmental
Assay type: in vivo, human
applied.conditions: human, plasma, intravenous; DL5, 6.75 mg/m2, n=3

mol | Tmax (h)
COc1cc2c3c(n(CCCn4ccnc4)c(=O)c2cc1OC)-c1cc2c(cc1C3=O)OCO2 | 1

###

protocol.description: Plasma pharmacokinetics of LMP776, non-compartmental
Format: in vivo, human
applied.conditions: human, plasma, intravenous; DL5, 6.75 mg/m2, n=3

mol | Cmax (ng/mL)
COc1cc2c3c(n(CCCn4ccnc4)c(=O)c2cc1OC)-c1cc2c(cc1C3=O)OCO2 | 273

###

protocol.description: Plasma pharmacokinetics of LMP744, non-compartmental
Assay type: in vivo, human
applied.conditions: human, plasma, intravenous; DL1, 6 mg/m2, n=1
measured.metric: AUC(0-inf) (ng·h/mL)

compound | readout.number
COc1cc2c3c(n(CCCNCCO)c(=O)c2cc1OC)-c1cc2c(cc1C3=O)OCO2 [LMP744] | 142
